# assay-overview: Comparison of Janus kinase inhibitors to block the type I interferon pathway in human skeletal muscle cells: JAK inhibition assay
# condition-parameters: IFN pathway HiBiT reporter; series mostly up to 45.9 µM
Records with an inconclusive call do not appear. Activity calls are given as the source filed them. The call rests on the fitted dose curve; in most records, active means well fitted inhibition curve with a large enough effect in the repeat runs; inconclusive means weak or mixed curves; inactive means no such curve, though single readings can be large or run the other way.
Give Potency for every item shown.

Query string: Read the entry COc1nsc(NC(=O)N2C[C@H]3CC(N(C)c4ncnc5[nH]ccc45)C[C@H]3C2)n1 (stereo partly drawn) and write its reported Potency.
Result string: 0.432 µM (active)

Query string: Given O=C(Nc1nc2cccc(-c3ccc(CN4CCS(=O)(=O)CC4)cc3)n2n1)C1CC1 , respond with its Potency.
Result string: 15.3 µM (active)

Query string: Identify measured Potency associated with CC[C@@](C)(Nc1ccnc(-c2c[nH]c3ncccc23)n1)C(=O)NCC(F)(F)F
Result string: 8.29 µM (active)

Query string: Read off the recorded Potency for CNS(=O)(=O)CC1CCC(N(C)c2ncnc3[nH]ccc23)CC1 (stereo not drawn)
Result string: 4.66 µM (active)

Query string: Quickly give me recorded Potency for CC(C)N(CCC(=O)c1ccc2ccccc2c1)Cc1ccccc1
Result string: 14.2 µM (active)

Query string: Could you please provide reported Potency for O=C(Nc1ccnc(NC(=O)C2CC2)c1)c1c(Cl)cccc1Cl ? Thanks!
Result string: 4.48 µM (active)

Query string: Output Potency of CCS(=O)(=O)N1CC(CC#N)(n2cc(-c3ncnc4[nH]ccc34)cn2)C1
Result string: 1.31 µM (active)

Query string: // Input: Cc1cnc(Nc2ccc(N3CCN(C)CC3)cc2)nc1Nc1cccc(S(=O)(=O)NC(C)(C)C)c1 . Output its Potency only.
Result string: 2.43 µM (active)

---

# assay-overview: Comparison of Janus kinase inhibitors to block the type I interferon pathway in human skeletal muscle cells: JAK inhibition assay
# condition-parameters: IFN pathway HiBiT reporter; series mostly up to 45.9 µM
Inconclusive results are not listed. Activity calls are given as the source filed them. Calls come from the whole dose curve; as a rule, active = well fitted inhibition curve with a large enough effect in the repeat runs; inconclusive = weak or mixed curves; inactive = no such curve, though single readings can be large or run the other way.
endpoint-label: Potency

Query string: Give reported Potency value for Cc1cnc(Nc2cccc(CN3CCOCC3)c2)nc1Nc1cccc(S(=O)(=O)NC(C)(C)C)c1
Result string: 10 µM (active)

Query string: Consider the compound Cc1cc(Nc2nc(N[C@@H](C)c3ncc(F)cn3)ncc2Cl)n[nH]1 and give its recorded Potency.
Result string: 1.47 µM (active)

Query string: Given CCCS(=O)(=O)NC1CC(N(C)c2ncnc3[nH]ccc23)C1 (centres undefined) , respond with its Potency.
Result string: 3.7 µM (active)

Query string: Write down Potency measured for item NC(=O)c1cnc2[nH]ccc2c1NC1C2CC3C[C@H]1CC(O)(C3)C2 (some centres undefined)
Result string: 1.72 µM (active)

Query string: Given the compound CC1(C)CN(C(=O)c2ccc(-c3cccc4nc(NC(=O)C5CC5)nn34)cc2)C1 , write its reported Potency.
Result string: 7.67 µM (active)

Query string: Supply Potency value. Item: CC[C@@H]1CN(C(=O)NCC(F)(F)F)C[C@@H]1c1cnc2cnc3[nH]ccc3n12
Result string: 0.33 µM (active)

Query string: Give recorded Potency. CN1CCN(c2cccc(Nc3nc4c(-c5ccc(S(C)(=O)=O)cc5)cccn4n3)c2)CC1
Result string: 3.06 µM (active)

Query string: Return reported Potency. Input compound: [2H]C([2H])([2H])NC(=O)c1nnc(NC(=O)C2CC2)cc1Nc1cccc(-c2ncn(C)n2)c1OC
Result string: 0.0711 µM (active)

Query string: Identify Potency associated with the compound N#CC[C@H](C1CCCC1)n1cc(-c2ncnc3[nH]ccc23)cn1
Result string: 0.861 µM (active)
